# TEST_PROTOCOL: Pharmacokinetics in control rats after gavage of JYPs
# Assay type: in vivo, Sprague Dawley (SD) rats
# TEST_CONTEXT: oral JYPs medium dose 2.160 g/kg/d (2nd of 3 values)
# Text: According to the established method for the analysis of serum biological samples, the pharmacokinetics of various components of rat serum were investigated after the administration of different dosages of JYPs to control rats. For the control experiment, healthy male Sprague Dawley (SD) rats of SPF grade ([…] ± 20 g) were purchased from Sipeifu (Beijing) Biotechnology Co., Ltd. (Beijing, China), Animal Quality Certificate No. 110324220102348616. […]
MEASURED_PROPERTY: AUMC(0-ꝏ)

- COMPOUND: "C[C@H]1O[C@@H](O[C@H]2CC[C@@]3(C)[C@@H](CC[C@]4(C)[C@@H]3C=C[C@]35OC[C@@]6(CCC(C)(C)C[C@H]63)[C@@H](O)C[C@]54C)[C@]2(C)CO)[C@H](O)[C@@H](O[C@@H]2O[C@H](CO)[C@@H](O)[C@H](O)[C@H]2O)[C@H]1O [Saikosaponin A]"
  MEASURED_PROPERTY: "AUMC(0-ꝏ)"
  OBSERVED_MEASUREMENT: "2307.92± 1659.75 ng/mL*(h)²"
- COMPOUND: "CCCC=C1OC(=O)C2=C1CCC1C3C=C4C(=O)OC(=CCCC)C4(CC3)C21 (stereo not shown) [Levistilide A]"
  MEASURED_PROPERTY: "AUMC(0-ꝏ)"
  OBSERVED_MEASUREMENT: "849.62± 407.65 ng/mL*(h)²"
- COMPOUND: "C[C@H]1O[C@@H](O[C@H]2CC[C@@]3(C)[C@@H](CC[C@]4(C)[C@@H]3C=C[C@]35OC[C@@]6(CCC(C)(C)C[C@H]63)[C@H](O)C[C@]54C)[C@]2(C)CO)[C@H](O)[C@@H](O[C@@H]2O[C@H](CO)[C@@H](O)[C@H](O)[C@H]2O)[C@H]1O [Saikosaponin D]"
  MEASURED_PROPERTY: "AUMC(0-ꝏ)"
  OBSERVED_MEASUREMENT: "1586.66± 988.85 ng/mL*(h)²"
- COMPOUND: "CCC/C=C1\\OC(=O)C2=C1CCC=C2 [Z-Ligustilide]"
  MEASURED_PROPERTY: "AUMC(0-ꝏ)"
  OBSERVED_MEASUREMENT: "2206.47± 2197.92 ng/mL*(h)²"

----------
# TEST_PROTOCOL: Pharmacokinetics in control rats after gavage of JYPs
# Assay type: in vivo, Sprague Dawley (SD) rats
# TEST_CONTEXT: oral JYPs high dose 4.320 g/kg/d (3rd of 3 values)
# Excerpt: According to the established method for the analysis of serum biological samples, the pharmacokinetics of various components of rat serum were investigated after the administration of different dosages of JYPs to control rats. For the control experiment, healthy male Sprague Dawley (SD) rats of SPF grade ([…] ± 20 g) were purchased from Sipeifu (Beijing) Biotechnology Co., Ltd. (Beijing, China), Animal Quality Certificate No. 110324220102348616. […]
In this section, each of the compounds is paired with its reported AUMC(0-ꝏ).

- COMPOUND: "C[C@H]1O[C@@H](O[C@H]2CC[C@@]3(C)[C@@H](CC[C@]4(C)[C@@H]3C=C[C@]35OC[C@@]6(CCC(C)(C)C[C@H]63)[C@@H](O)C[C@]54C)[C@]2(C)CO)[C@H](O)[C@@H](O[C@@H]2O[C@H](CO)[C@@H](O)[C@H](O)[C@H]2O)[C@H]1O"
  AUMC(0-ꝏ): "2265.45± 1085.76 ng/mL*(h)²"
- COMPOUND: "CCCC=C1OC(=O)C2=C1CCC1C3C=C4C(=O)OC(=CCCC)C4(CC3)C21 (stereo not shown) [Levistilide A]"
  AUMC(0-ꝏ): "2493.49± 4004.18 ng/mL*(h)²"
- COMPOUND: "CCC/C=C1\\OC(=O)C2=C1CCC=C2 [Z-Ligustilide]"
  AUMC(0-ꝏ): "1163.41± 438.24 ng/mL*(h)²"
- COMPOUND: "C[C@H]1O[C@@H](O[C@H]2CC[C@@]3(C)[C@@H](CC[C@]4(C)[C@@H]3C=C[C@]35OC[C@@]6(CCC(C)(C)C[C@H]63)[C@H](O)C[C@]54C)[C@]2(C)CO)[C@H](O)[C@@H](O[C@@H]2O[C@H](CO)[C@@H](O)[C@H](O)[C@H]2O)[C@H]1O"
  AUMC(0-ꝏ): "2785.93± 1472.47 ng/mL*(h)²"

----------
# TEST_PROTOCOL: Pharmacokinetics in control rats after gavage of JYPs
# Type: in vivo, Sprague Dawley (SD) rats
# TEST_CONTEXT: male, Sprague-Dawley, rat, plasma, 1.08 g/kg/day, oral JYPs low dose 1.080 g/kg/d (1st of 3 values)
In this section, each of the molecules is paired with its reported Cmax.
MEASURED_PROPERTY: Cmax (ng/mL)

- MOLECULE: "C[C@H]1O[C@@H](O[C@H]2CC[C@@]3(C)[C@@H](CC[C@]4(C)[C@@H]3C=C[C@]35OC[C@@]6(CCC(C)(C)C[C@H]63)[C@H](O)C[C@]54C)[C@]2(C)CO)[C@H](O)[C@@H](O[C@@H]2O[C@H](CO)[C@@H](O)[C@H](O)[C@H]2O)[C@H]1O [Saikosaponin D]"
  UNIT_DESCRIPTOR: "ng/mL"
  OBSERVED_MEASUREMENT: 21.5
- MOLECULE: "CCCC=C1OC(=O)C2=C1CCC1C3C=C4C(=O)OC(=CCCC)C4(CC3)C21 (stereo not shown) [Levistilide A]"
  UNIT_DESCRIPTOR: "ng/mL"
  OBSERVED_MEASUREMENT: 1.79
- MOLECULE: "CCC/C=C1\\OC(=O)C2=C1CCC=C2 [Z-Ligustilide]"
  UNIT_DESCRIPTOR: "ng/mL"
  OBSERVED_MEASUREMENT: 3.37
- MOLECULE: "C[C@H]1O[C@@H](O[C@H]2CC[C@@]3(C)[C@@H](CC[C@]4(C)[C@@H]3C=C[C@]35OC[C@@]6(CCC(C)(C)C[C@H]63)[C@@H](O)C[C@]54C)[C@]2(C)CO)[C@H](O)[C@@H](O[C@@H]2O[C@H](CO)[C@@H](O)[C@H](O)[C@H]2O)[C@H]1O [Saikosaponin A]"
  UNIT_DESCRIPTOR: "ng/mL"
  OBSERVED_MEASUREMENT: 38.9

----------
# TEST_PROTOCOL: Pharmacokinetics in ADHD model rats after gavage of JYPs
# Format: in vivo, SHR rats (ADHD model)
# TEST_CONTEXT: ADHD model rats, oral JYPs
# Description: Based on the established analytical method for plasma samples, a pharmacokinetic study was conducted on 13 constituents in the plasma of ADHD model rats after gavage of JYPs (Figure 3). The linearity of ln(AUC0-t)–ln(dose) and ln(Cmax)–ln(dose) was analyzed in the same way. For the control experiment, healthy male Sprague Dawley (SD) rats of SPF grade ([…] ± 20 g) were purchased from Sipeifu (Beijing) Biotechnology Co., Ltd. (Beijing, China), Animal Quality Certificate No. 110324220102348616. […]

- COMPOUND: "C[C@H]1O[C@@H](O[C@H]2CC[C@@]3(C)[C@@H](CC[C@]4(C)[C@@H]3C=C[C@]35OC[C@@]6(CCC(C)(C)C[C@H]63)[C@H](O)C[C@]54C)[C@]2(C)CO)[C@H](O)[C@@H](O[C@@H]2O[C@H](CO)[C@@H](O)[C@H](O)[C@H]2O)[C@H]1O"
  peak time: "less than 1 h"
- COMPOUND: "CC12CC(O)C3CC1(OC1OC(CO)C(O)C(O)C1O)C3(COC(=O)c1ccccc1)C(=O)O2 (centres unmarked)"
  peak time: "less than 1 h"
- COMPOUND: "O=C1C[C@@H](c2ccc(O)cc2)Oc2cc(O)ccc21"
  peak time: "less than 1 h"
- COMPOUND: "C=C(C)[C@@H]1CC=C2C(=CC[C@]3(C)[C@@H]([C@@H](CCC=C(C)C)C(=O)O)[C@H](O)C[C@@]23C)[C@@]1(C)CCC(=O)O"
  peak time: "less than 4 h"
- COMPOUND: "O=C1C[C@@H](c2ccc(O[C@@H]3O[C@H](CO)[C@@H](O)[C@H](O)[C@H]3O)cc2)Oc2cc(O)ccc21"
  peak time: "less than 1 h"
- COMPOUND: "C[C@@]12C[C@@]3(O)O[C@@H](O1)[C@]1(COC(=O)c4ccccc4)[C@H]3C[C@@]12O[C@@H]1O[C@H](CO)[C@@H](O)[C@H](O)[C@H]1O"
  peak time: "less than 1 h"
- COMPOUND: "C[C@H]1O[C@@H](O[C@H]2CC[C@@]3(C)[C@@H](CC[C@]4(C)[C@@H]3C=C[C@]35OC[C@@]6(CCC(C)(C)C[C@H]63)[C@@H](O)C[C@]54C)[C@]2(C)CO)[C@H](O)[C@@H](O[C@@H]2O[C@H](CO)[C@@H](O)[C@H](O)[C@H]2O)[C@H]1O"
  peak time: "less than 1 h"
- COMPOUND: "C=C(CC[C@@H](C(=O)O)[C@H]1[C@H](O)C[C@@]2(C)C3=CC[C@@H](C(=C)C)[C@](C)(CCC(=O)O)C3=CC[C@]12C)C(C)C"
  peak time: "less than 4 h"
